The origin of these recorded values is patent US11932658B2.

Target: PAR4 (Homo sapiens)
Construct: expressed in transfected cells; host or cells: HEK293 PAR4 Clone 1.2A (BMS Arctic ID 383940)
Test: PAR4 FLIPR assay (antagonism of agonist peptide-induced calcium mobilization)
Assay type: cell-based
Source text: The FLIPR assay is an exemplary in vitro assay for measuring the activity of the PAR4 antagonists of the present invention. In this assay, intracellular calcium mobilization is induced in PAR4 expressing cells by a PAR4 agonist and calcium mobilization is monitored. HEK293 cells stably expressing PAR4 were generated by a standard method of transfection of human PAR4 (F2R23) cDNA expression vector and selected based on PAR4 protein expression or mRNA expression. […]
measured parameter: IC50 (nM)

compound: COc1cnc2c(-c3nc4c(F)cc5c(c4s3)OC[C@H](COC(=O)Nc3cccnc3)O5)cc(C)cc2n1 [Example 70]
target: PAR4 (Homo sapiens)
measured parameter: IC50
observed: 25
--
compound: COc1cnc2c(-c3nc4ccc5c(c4s3)C[C@@H](COC(=O)Nc3cnc(C)nc3)O5)cc(C)cc2n1 [Example 150]
target: PAR4 (Homo sapiens)
measured parameter: IC50
observed: 5.4
--
compound: COC(=O)c1cc(NC(=O)OCC2COc3c(cc(C)c4nc(-c5cc(C)cc6nc(OC)cnc56)sc34)O2)ccn1 (centres unmarked) [Example 134]
target: PAR4 (Homo sapiens)
measured parameter: IC50
observed: 3.3
--
compound: COc1cnc2c(-c3nc4c(C(O)C(C)(C)C)cc5c(c4s3)OCCCO5)cc(C)cc2n1 (centres unmarked) [Example 264]
target: PAR4 (Homo sapiens)
measured parameter: IC50
observed: 15
--
compound: COc1ccc(NC(=O)OC[C@H]2COc3c(ccc4nc(-c5cc(C)cc6nc(OC)cnc56)sc34)O2)cn1 [Example 104]
target: PAR4 (Homo sapiens)
measured parameter: IC50
observed: 1.9
--
compound: COc1cnc2c(-c3nc4c(C)cc5c(c4s3)OCC(COC(=O)Nc3cnc4[nH]ccc4c3)O5)cc(C)cc2n1 (centres unmarked) [Example 142]
target: PAR4 (Homo sapiens)
measured parameter: IC50
observed: 2.9
--
compound: COc1cnc2c(-c3nc4c(C)cc5c(c4s3)OCC(COC(=O)Nc3ccc4c(c3)C(=O)NCC4)O5)cc(C)cc2n1 (centres unmarked) [Example 78]
target: PAR4 (Homo sapiens)
measured parameter: IC50
observed: 8.6
--
compound: COc1cnc2c(-c3nc4c(C)cc5c(c4s3)OCC(COC(=O)Nc3ccnc(-c4ccccc4)c3)O5)cc(C)cc2n1 (centres unmarked) [Example 117]
target: PAR4 (Homo sapiens)
measured parameter: IC50
observed: 1.1
--
compound: COc1cnc2c(-c3nc4cc(F)c5c(c4s3)C[C@](C)(COC(=O)Nc3cnc(C)nc3)O5)cc(C)cc2n1 [Example 182]
target: PAR4 (Homo sapiens)
measured parameter: IC50
observed: 2.6
--
compound: COc1ccc(NC(=O)OCC2COc3c(cc(C)c4nc(-c5cc(C(C)O)cc6nc(OC)cnc56)sc34)O2)cn1 (centres unmarked) [Example 88]
target: PAR4 (Homo sapiens)
measured parameter: IC50
observed: 4.4
--
compound: COc1cnc2c(-c3nc4cc(F)c5c(c4s3)C[C@H](CO)O5)cc(Cl)cc2c1 [Example 282]
target: PAR4 (Homo sapiens)
measured parameter: IC50
observed: 36
--
compound: COc1cnc2c(-c3nc4c(C)cc5c(c4s3)OC[C@H](COC(=O)Nc3cncc(C#N)c3)O5)cc(C)cc2n1 [Example 51]
target: PAR4 (Homo sapiens)
measured parameter: IC50
observed: 16
--
compound: COc1cnc2c(-c3nc4c(C)cc5c(c4s3)OC[C@H](COC(=O)Nc3ccc(F)nc3)O5)cc(C)cc2n1 [Example 41]
target: PAR4 (Homo sapiens)
measured parameter: IC50
observed: 1.6
--
compound: COc1cnc2c(-c3cc4c5c(cc(C)c4o3)O[C@@H](COC(=O)Nc3ccc(C)nc3)CO5)cc(C)cc2n1 [Example 14]
target: PAR4 (Homo sapiens)
measured parameter: IC50
observed: 2.9
--
compound: COC(=O)NC[C@]1(C)Cc2c(c(F)cc3nc(-c4cc(C)cc5nc(OC)cnc45)sc23)O1 [Example 240]
target: PAR4 (Homo sapiens)
measured parameter: IC50
observed: 32
--
compound: Cc1ncc(NC(=O)OC[C@H]2COc3c(ccc4nc(-c5cc(Cl)cc6cc(OC(F)F)cnc56)sc34)O2)cn1 [Example 272]
target: PAR4 (Homo sapiens)
measured parameter: IC50
observed: 3.3
--
compound: CCOc1cnc2c(-c3nc4cc(F)c5c(c4s3)C[C@@H](CO)O5)cc(C)cc2n1 [Example 152]
target: PAR4 (Homo sapiens)
measured parameter: IC50
observed: 11
--
compound: COc1cnc2c(-c3nc4cc(F)c5c(c4s3)C[C@H](COC(=O)Nc3cnc(OC)nc3)O5)cc(C)cc2n1 [Example 177]
target: PAR4 (Homo sapiens)
measured parameter: IC50
observed: 2.8
--
compound: COc1cnc2c(-c3nc4c(C)cc5c(c4s3)OCC(COC(=O)Nc3ccc(C)nc3)O5)cc(Cl)cc2n1 (centres unmarked) [Example 97]
target: PAR4 (Homo sapiens)
measured parameter: IC50
observed: 64
--
compound: COc1cnc2c(-c3cc4c5c(cc(Cl)c4o3)O[C@@H](COC(=O)Nc3ccc(C)nc3)CO5)cc(C)cc2n1 [Example 7]
target: PAR4 (Homo sapiens)
measured parameter: IC50
observed: 1

----------
Target: PAR4 (Homo sapiens)
Construct: expressed in transfected cells; host or cells: HEK293 PAR4 Clone 1.2A (BMS Arctic ID 383940)
Experiment: PAR4 FLIPR assay (antagonism of agonist peptide-induced calcium mobilization)
Assay type: cell-based
Measured log10(IC50), listed per entry.
measured parameter: log10(IC50) (log10 of the value in nM)

compound: COc1cnc2c(-c3nc4cc(F)c5c(c4s3)C[C@](C)(CO)O5)cc(C)cc2n1 [Example 181]
target: PAR4 (Homo sapiens)
log10(IC50): 1.72
--
compound: COc1cnc2c(-c3nc4c(C)cc5c(c4s3)OC[C@H](COC(=O)Nc3ccc(-c4cccs4)nc3)O5)cc(C)cc2n1 [Example 53]
target: PAR4 (Homo sapiens)
log10(IC50): 1.73
--
compound: COc1cnc2c(-c3nc4c(C)cc5c(c4s3)OC[C@H](COC(=O)Nc3ccnc(C)c3)O5)cc(C)cc2n1 [Example 44]
target: PAR4 (Homo sapiens)
log10(IC50): -0.10
--
compound: COc1cnc2c(-c3nc4c(C)cc5c(c4s3)OC[C@H](COC(=O)Nc3cccnc3)O5)cc(CO)cc2n1 [Example 101]
target: PAR4 (Homo sapiens)
log10(IC50): 0.45
--
compound: COc1cnc2c(-c3nc4ccc5c(c4s3)OC[C@H](COC(=O)Nc3ccc4[nH]c(=O)oc4c3)O5)cc(C)cc2n1 [Example 106]
target: PAR4 (Homo sapiens)
log10(IC50): 0.30
--
compound: COc1cnc2c(-c3nc4cc(F)c5c(c4s3)C[C@H](COC(=O)Nc3cccc(C(=O)N(C)C)c3)O5)cc(C)cc2n1 [Example 203]
target: PAR4 (Homo sapiens)
log10(IC50): 0.36

----------
Measured pIC50, listed per entry.
Target: PAR4 (Homo sapiens)
Construct: expressed in transfected cells; host or cells: HEK293 PAR4 Clone 1.2A (BMS Arctic ID 383940)
Test: PAR4 FLIPR assay (antagonism of agonist peptide-induced calcium mobilization)
Type: cell-based
pIC50: −log10 of the molar value.
measured parameter: pIC50

compound: COc1cnc2c(-c3nc4cc(F)c5c(c4s3)C[C@H](COC(=O)Nc3cncc(C#N)c3)O5)cc(C)cc2n1
measured parameter: pIC50
observed: 8.20
//
compound: COc1cnc2c(-c3nc4c(C(O)C5(C(F)(F)F)CC5)cc5c(c4s3)OCCO5)cc(C)cc2n1 (stereo not shown)
measured parameter: pIC50
observed: 8.04
//
compound: COc1cnc2c(-c3nc4c(C)cc5c(c4s3)OCC(COC(=O)Nc3ccnc(F)c3)O5)cc(C)cc2n1 (stereo not shown)
measured parameter: pIC50
observed: 7.80
//
compound: COc1cnc2c(-c3nc4ccc5c(c4s3)C[C@@H](CNC(=O)OCc3ccncc3)O5)cc(C)cc2n1
measured parameter: pIC50
observed: 8.18

----------
Molecular target: PAR4 (Homo sapiens, UniProt Q96RI0)
Construct: expressed in transfected cells; host or cells: HEK293 PAR4 Clone 1.2A (BMS Arctic ID 383940)
Sequence (Q96RI0 18-385): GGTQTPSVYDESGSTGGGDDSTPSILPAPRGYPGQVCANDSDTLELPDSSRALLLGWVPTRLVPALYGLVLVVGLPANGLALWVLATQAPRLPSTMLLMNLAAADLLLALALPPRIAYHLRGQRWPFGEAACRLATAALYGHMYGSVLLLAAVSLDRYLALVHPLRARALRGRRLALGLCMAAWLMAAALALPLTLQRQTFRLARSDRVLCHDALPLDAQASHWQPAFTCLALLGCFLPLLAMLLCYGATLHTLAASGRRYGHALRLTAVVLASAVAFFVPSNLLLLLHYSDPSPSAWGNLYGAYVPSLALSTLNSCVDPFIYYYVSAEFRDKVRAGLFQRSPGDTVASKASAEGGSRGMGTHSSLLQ
Assay: PAR4 FLIPR assay (antagonism of agonist peptide-induced calcium mobilization)
Format: cell-based
pIC50: −log10 of the molar value.
Measured pIC50, listed per entry.
measured parameter: pIC50

molecule: COc1cnc2c(-c3nc4c(C(F)F)cc5c(c4s3)OCC(COC(=O)Nc3ccnc(C)c3)O5)cc(C)cc2n1 (centres unmarked) [Example 74]
observed: 8.07
--
molecule: COC(=O)NC[C@H]1Oc2c(F)cc3nc(-c4cc(C)cc5nc(OC)cnc45)sc3c2[C@@H]1C [Example 255]
observed: 8.85
--
molecule: COc1cnc2c(-c3nc4cc(F)c5c(c4s3)C(C)(C)[C@H](CO)O5)cc(C)cc2n1 (single isomer, unassigned) [Example 206]
observed: 6.43
--
molecule: COc1cnc2c(-c3nc4cc(F)c5c(c4s3)C[C@@H](CNC(=O)OCCF)O5)cc(C)cc2n1 [Example 247]
observed: 9.15
--
molecule: COc1ccc(NC(=O)OC[C@H]2COc3c(cc(C)c4nc(-c5cc(C#N)cc6nc(OC)cnc56)sc34)O2)cn1 [Example 94]
observed: 7.54
